Target: T1, human Fc Receptor-Like 5 (FcRL5), full length, expressed on cells (human, UniProt Q96RD9 16-977)
T1 construct: also called CD307e; IRTA2
T1 sequence: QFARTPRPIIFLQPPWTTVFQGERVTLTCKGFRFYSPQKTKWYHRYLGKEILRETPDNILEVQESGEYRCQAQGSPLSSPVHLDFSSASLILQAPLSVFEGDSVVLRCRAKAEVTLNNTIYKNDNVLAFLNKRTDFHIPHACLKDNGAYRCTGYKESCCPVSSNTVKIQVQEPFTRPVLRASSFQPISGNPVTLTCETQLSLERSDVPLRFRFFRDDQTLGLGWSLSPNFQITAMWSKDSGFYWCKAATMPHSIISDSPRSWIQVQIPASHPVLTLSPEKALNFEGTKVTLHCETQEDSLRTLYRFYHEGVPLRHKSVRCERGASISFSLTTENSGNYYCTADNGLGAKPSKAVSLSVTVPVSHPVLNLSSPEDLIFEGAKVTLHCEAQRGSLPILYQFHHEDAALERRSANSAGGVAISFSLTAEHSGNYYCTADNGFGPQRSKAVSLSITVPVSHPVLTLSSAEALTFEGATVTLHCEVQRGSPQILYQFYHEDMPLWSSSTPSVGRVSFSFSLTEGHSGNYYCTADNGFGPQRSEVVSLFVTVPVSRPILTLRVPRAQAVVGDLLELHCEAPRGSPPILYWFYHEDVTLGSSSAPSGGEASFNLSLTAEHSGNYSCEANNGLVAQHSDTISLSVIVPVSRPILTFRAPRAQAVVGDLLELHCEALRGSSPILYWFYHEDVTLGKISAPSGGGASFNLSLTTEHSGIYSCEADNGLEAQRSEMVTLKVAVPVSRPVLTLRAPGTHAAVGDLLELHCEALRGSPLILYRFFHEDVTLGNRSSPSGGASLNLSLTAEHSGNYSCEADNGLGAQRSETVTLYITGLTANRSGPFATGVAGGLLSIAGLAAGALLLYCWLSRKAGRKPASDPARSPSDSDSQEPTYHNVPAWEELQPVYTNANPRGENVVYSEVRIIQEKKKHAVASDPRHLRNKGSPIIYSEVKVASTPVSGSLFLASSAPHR
Assay: scFv phage: ELISA on His-tag FcRL5, flow cytometry on FcRL5-overexpressing 3T3 and Raji cells
property measured: binding result

Below: 4 binders and their reported binding result.
ET200-039 scFv (scFv, VL-linker-VH; screened as scFv phage clone; also called ET200-39) scFv: NFMLTQPHSVSESPGKTVTISCTRSSGSIASNYVQWYQQRPGSSPTTVIYEDNQRPSGVPDRFSGSIDSSSNSASLTISGLKTEDEADYYCQSYDSSNWVFGGGTKLTVLGSRGGGGSGGGGSGGGGSLEMAEVQLVQSGAEVKKPGSSVKVSCKASGGTFSSYAISWVRQAPGQGLEWMGGIIPIFGTANYAQKFQGRVTITADESTSTAYMELSSLRSEDTAVYYCARSNYYYNDYWGQGTLVTVSS    binds
ET200-013 scFv (scFv, VL-linker-VH; screened as scFv phage clone) scFv: QSVVTQPPSVSGAPGQRVTISCTGSTSNIGAGYDVHWYQQLPGTAPKLLIYTNNFRPSGVPDRFSASKSGTSASLAITGLQAEDEADYYCGTWDSSLSAVVFGGGTKLTVLGSRGGGGSGGGGSGGGGSLEMAEVQLVESGTEVKKPGASVKVSCKASGYMFTSYGLNWVRQAPGQGLEWMGWISANNGKTNYAKKFQDRVTMTRDTSTSTGYMELRSLRSDDTAVYYCARHIGGSYFDRWGQGTLVTVSS    binds
ET200-022 scFv (scFv, VL-linker-VH; screened as scFv phage clone) scFv: QSVVTQPPSVSAAPGQKVTISCSGSSSNIGNNYVSWYQQLPGTAPKLLIYDNNKRPSGIPDRFSGSKSGTSATLGITGLQTGDEADYYCGTWDSSLGAPYVFGTGTKVTVLGSRGGGGSGGGGSGGGGSLEMAEVQLVQSWGGSEQPGRSLRLSCAASGFTFDDYAMHWVRQAPGKGLEWVSGISWNSGSIGYADSVKGRFTISRDNAKNSLYLQMNSLRAEDTAMYYCARYRQVGSAYDSWGQGTLVTVSS    binds
ET200-032 scFv (scFv, VL-linker-VH; screened as scFv phage clone) scFv: LPVLTQPPSASGTPGQRVTISCSGSSSNVGSYTVNWYRQLPGTAPTLLIYNNNQRPSGVPDRFSDSKSGTSASLTISGLQPEDEADYYCAAWDDRLGGYVFGTGTKVTVLGSRGGGGSGGGGSGGGGSLEMAEVQLVQSGAEVKKPGESLKISCKGSGYSFTNYWIGWVRQMPGKGLEWMGIIYPGDSDTRYSPSFQGQVTISADKSISTAYLQWSSLKASDTAMYYCARSTGSSHMSDEWGQGTLVTVSS    binds

Provide reported binding result for each item, in the same order as listed.
1. ET200-099 scFv (scFv, VL-linker-VH; screened as scFv phage clone) scFv: QSVLTQPPSASGTPGQRVTISCSGSSSNIGSNTVNWYQQLPGTAPKLLIYSNDQRPSGVPDRFSGSKSGTSASLAISGLQSEDEADYYCASWDDSLNGRYVFGTGTKVTVLGSRGGGGSGGGGSGGGGSLEMAQVQLVQSGAEVRKPGASVKVSCKTSGYTFSWYAIHWVRQAPGQRLEWMGWINAGNGNTKYSQKFQGRVSLTRDTSASTAYMELSSLRSDDTAVYYCARPDNYGSGGDVFDIWGQGTMVTVSS
2. ET200-014 scFv (scFv, VL-linker-VH; screened as scFv phage clone) scFv: SYVLTQPPSVSVAPGKTARITCGGNNIGSKSVHWYQQKPGQAPVLVIYYDSDRPSGIPERFSGSNSGNTATLTISRVEAGDEADYYCQVWDSSSDHYVFGTGTKVTVLGSRGGGGSGGGGSGGGGSLEMAEVQLVETGGGLVQPGGSLRLSCAASGFTFSSYAMSWVRQAPGKGLEWVSAISGSDGSTYYADSVKGRFTISRDNSKNTLYLQMNSLRDEDTAVYYCARSHEANLVGDWWGQGTLVTVSS
3. ET200-115 scFv (scFv, VL-linker-VH; screened as scFv phage clone) scFv: QSVLTQPPSVSGAPGQRVTISCTGSSSNIGARYDVHWYQQLPGTAPRLLISANYDRPSGVPDRFSGSKSGTSASLAITGLQAEDEADYYCQSYDSSVSAWVFGGGTKVTVLGSRGGGGSGGGGSGGGGSLEMAEVQLVQSGAEVKEPGASVRISCQASGYNFISYYMHWVRQAPGQGLEWMGTINPGSGETDYSQKLQGRVTMTRDPSTGTFDMGLSSLTSGDTAVYYCATGLIRGASDAFNIWGRGTMVTVSS
4. ET200-118 scFv (scFv, VL-linker-VH; screened as scFv phage clone) scFv: QAVLTQPASVSGSPGQSITISCTGTSSDVGGYNYVSWYQQHPGKAPKLMIYEVSNRPSGVSNRFSGSKSGNTASLTISGLQAEDEADYYCSSYTSSSTPYVFGAGTKVTVLGSRGGGGSGGGGSGGGGSLEMAEVQLVESGGGLVQPGRSLRLSCAASGFTFDDYAMHWVRQAPGKGLEWVSGISWNSGSIGYADSVKGRFTISRDNAKNSLYLQMNSLRAEDTALYYCAKARWTAVASDHHFDYWGQGTLVTVSS
5. ET200-038 scFv (scFv, VL-linker-VH; screened as scFv phage clone) scFv: QSVLTQPPSVSGAPGQRVTISCTGSSSNIGAGFDVHWYQLLPGTAPKLLIYANSNRPSGVPDRFSGSKSGTSASLAITGLLAEDEADYYCQSYDSSLSGVVFGGGTKLTVLGSRGGGGSGGGGSGGGGSLEMAQVQLVQSGAEVKKPGSSVKVSCKASGGTFSSYAISWVRQAPGQGLEWMGGIIPIFGTANYAQKFQGRVTITADESTSTAYMELSSLRSEDTAVYYCARGASFDRHDNWGQGTLVTVSS

-- reply
["binds", "binds", "binds", "binds", "binds"]

Origin of measurements: patent US20230020729A1
